Where do these numbers come from? They come from patent US20180064821A1.

System: HCT116 human colo-rectal cancer cells
protocol_description: MTT cell viability assay, HCT116
Format: cell-based
measurement_conditions: 48 h incubation, listed as curcumin in DMSO, read-out: IC50 (mean ± SD) In HCT116 Cells
readout_type: pIC50
When answering, recall that pIC50 equals minus log10 of the concentration in mol/L, and write that number alone.

## Input Note pIC50 for the compound shown: COc1cc(/C=C/C(=O)CC(=O)/C=C/c2ccc(O)c(OC)c2)ccc1O [Curcumin]
## Output 4.74

###

System: HCT116 human colo-rectal cancer cells
protocol_description: MTT cell viability assay, HCT116
Format: cell-based
measurement_conditions: 48 h incubation, listed as Unformulated curcumin at pH 7.0, read-out: IC50 (mean ± SD) In HCT116 Cells
readout_type: IC50

## Input Give the reported value of IC50 for this record: COc1cc(/C=C/C(=O)CC(=O)/C=C/c2ccc(O)c(OC)c2)ccc1O
## Output > 80 µM
